target: CYP3A4 (Homo sapiens, UniProt P08684); test: Determination of compound Kiapp against recombinant CYP3A4 enzyme (BFC fluorescent substrate); type: biochemical; details: Baculo. enzyme preparation, read-out: Kiapp (BFC, Baculo.)
Sequence (P08684 whole entry): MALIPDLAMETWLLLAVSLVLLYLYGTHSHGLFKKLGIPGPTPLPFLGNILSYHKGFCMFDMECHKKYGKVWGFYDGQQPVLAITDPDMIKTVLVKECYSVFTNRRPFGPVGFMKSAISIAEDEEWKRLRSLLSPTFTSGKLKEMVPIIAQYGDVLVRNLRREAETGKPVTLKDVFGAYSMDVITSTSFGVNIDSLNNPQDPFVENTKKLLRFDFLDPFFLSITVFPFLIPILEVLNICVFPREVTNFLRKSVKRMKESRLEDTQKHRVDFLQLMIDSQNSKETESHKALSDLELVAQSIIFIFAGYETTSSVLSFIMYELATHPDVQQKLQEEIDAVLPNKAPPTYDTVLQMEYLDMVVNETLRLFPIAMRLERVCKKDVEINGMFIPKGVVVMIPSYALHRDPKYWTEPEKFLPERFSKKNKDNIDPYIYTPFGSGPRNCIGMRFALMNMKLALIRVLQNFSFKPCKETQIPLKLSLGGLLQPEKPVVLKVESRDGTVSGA
pKi: −log10 of the molar value.
property-measured: pKi

Illustrative cases are given below, each with its answer.
In [3]: df
Out[3]:
                                   molecule                            measured_on  value
0  COc1cncc(NS(=O)(=O)c2ccccc2C(=O)NCc2cc(Cl)ccc2F)c1 [Example 151]  CYP3A4 (Homo sapiens, UniProt P08684)   6.92
1  COc1cncc(NS(=O)(=O)c2ccccc2C(=O)N(C)Cc2ccccc2F)c1 [Example 198]  CYP3A4 (Homo sapiens, UniProt P08684)   7.38
2  COc1cncc(NS(=O)(=O)c2ccccc2C(=O)NCCc2ccc(C)c(F)c2F)c1 [Example 136]  CYP3A4 (Homo sapiens, UniProt P08684)   7.22
3  CCCN(CC1CC1)C(=O)c1ccccc1S(=O)(=O)N(C)c1cncc(OC)c1 [Example 329]  CYP3A4 (Homo sapiens, UniProt P08684)   7.47
4  COc1cncc(NS(=O)(=O)c2ccccc2C(=O)NCc2cccc(Cl)c2F)c1 [Example 175]  CYP3A4 (Homo sapiens, UniProt P08684)   7.62
5  COc1cccc(OC)c1CNC(=O)c1ccccc1S(=O)(=O)Nc1cccnc1 [Example 45]  CYP3A4 (Homo sapiens, UniProt P08684)   6.42
6  COc1cncc(NS(=O)(=O)c2ccc(F)cc2C(=O)NCCC(C)C)c1 [Example 303]  CYP3A4 (Homo sapiens, UniProt P08684)   6.93
7  CCOCCNC(=O)c1ccccc1S(=O)(=O)Nc1cncc(OC)c1 [Example 237]  CYP3A4 (Homo sapiens, UniProt P08684)   6.01
8  CCCCNC(=O)c1ccccc1S(=O)(=O)Nc1cncc(C)c1 [Example 31]  CYP3A4 (Homo sapiens, UniProt P08684)   7.15
9  COc1cncc(NS(=O)(=O)c2ccc(OCCN3CCOCC3)cc2C(=O)N(C)C(C)C)c1 [Example 247]  CYP3A4 (Homo sapiens, UniProt P08684)   7.32

P = Cc1ccccc1CNC(=O)c1ccccc1S(=O)(=O)Nc1cccnc1 [Example 74]
Q = COc1cncc(NS(=O)(=O)c2ccccc2C(=O)NCc2ccc(C#N)cc2Cl)c1 [Example 203]
Input: Record comparison, field pKi: mark the lower of P and Q . Provide the label of your selected option as the answer.
Output: P
(P: 6.76, Q: 7.00)

----------
target: CYP3A4 (Homo sapiens, UniProt P08684); experiment: Determination of compound Kiapp against recombinant CYP3A4 enzyme (BFC fluorescent substrate); assay type: biochemical; details: Super. enzyme preparation, read-out: Kiapp (BFC, Super.)
property-measured: Ki (nM)

Illustrative cases are given below, each with its answer.
>>> print(df.to_string())
                                   molecule  units_of_measure  value
0  COc1cncc(NS(=O)(=O)c2ccccc2C(=O)NCc2cccc(Cl)c2C)c1 [Example 206]                nM    2.9
1  Cc1ccncc1NS(=O)(=O)c1ccccc1C(=O)NC(C)(C)C [Example 178]                nM    106
2  O=C(c1ccccc1S(=O)(=O)Nc1cccnc1)N1Cc2ccccc2C1 [Example 88]                nM   47.6
3  COCCN(C)C(=O)c1ccccc1S(=O)(=O)Nc1cnccc1OC [Example 161]                nM    418
4  COc1ccncc1NS(=O)(=O)c1ccccc1C(=O)N[C@@H](C)C(C)C [Example 108]                nM    115

a = Cc1cc(CNC(=O)c2ccccc2S(=O)(=O)Nc2cnccc2C)ccc1F [Example 167]
b = COc1cncc(NS(=O)(=O)c2ccccc2C(=O)NCc2cccc(F)c2F)c1 [Example 181]
Input: Could you please tell me which of these two has the higher Ki: a or b ? Provide the label of your selected option as the answer.
Output: a

I = CN(Cc1ccc(C(F)(F)F)cc1)C(=O)c1ccccc1S(=O)(=O)Nc1cccnc1 [Example 140]
II = COc1cncc(NS(=O)(=O)c2ccccc2C(=O)NCc2ccc(Cl)c(Cl)c2)c1 [Example 314]
Input: Record comparison, field Ki: mark the lower of I and II . Provide the label of your selected option as the answer.
Output: II

----------
Target: CYP3A4 (Homo sapiens, UniProt P08684)
Test: Determination of IC50 against CYP3A4 by measurement of inhibition of midazolam metabolism (human liver microsomes, 1-hydroxymidazolam by LC-MS/MS)
Format: biochemical
Design: 0.1 mg/mL human liver microsomes
Conditions: 2 μM midazolam, 0.1 mg/mL human liver microsomes
Procedure: 3. Determination of IC50 Against CYP3A4 by Measurement of Inhibition of Midazolam Metabolism This assay was performed using a standard 96 well plate design. […] Quantitation of metabolite peak area ratio against internal standard is determined by LC-MS/MS analysis. The production of 1-hydroxymidazolam from midazolam metabolism is determined after incubation for eight minutes by comparison to a standard curve generated for the metabolite. […]
pIC50: −log10 of the molar value.
property-measured: pIC50

Illustrative cases are given below, each with its answer.
>>> df
                                   molecule  value
0  O=C(NC1CCC1)c1ccccc1S(=O)(=O)Nc1cccnc1 [Example 65]   6.60
1  CCOc1ccncc1NS(=O)(=O)c1ccccc1C(=O)NCC(C)CC (stereo not shown) [Example 115]   7.64
2  Cc1cncc(NS(=O)(=O)c2ccccc2C(=O)NCc2ccc(C)c(F)c2)c1 [Example 157]   8.10
3  Cc1ccncc1NS(=O)(=O)c1ccccc1C(=O)NCCOc1ccccc1 [Example 171]   7.46

I = COc1cncc(NS(=O)(=O)c2ccccc2C(=O)NCCc2cc(F)ccc2F)c1 [Example 197]
II = Cc1cncc(NS(=O)(=O)c2ccccc2C(=O)N(C)Cc2ccccc2F)c1 [Example 129]
III = Cc1cncc(NS(=O)(=O)c2ccccc2C(=O)NCCC(C)C)c1 [Example 362]
IV = CCOc1ccncc1NS(=O)(=O)c1ccccc1C(=O)NCCOC [Example 217]
V = O=C(NCCCc1ccccn1)c1ccccc1S(=O)(=O)Nc1cccnc1 [Example 69]
Input: Order by pIC50, ascending. Your reply should list the labels following the order given in the request.
Output: IV, V, III, II, I

A = Cc1cncc(NS(=O)(=O)c2ccccc2C(=O)NCCc2ccccc2F)c1 [Example 227]
B = COc1cncc(NS(=O)(=O)c2ccccc2C(=O)NC2CCCCC2)c1 [Example 187]
C = COc1ccccc1CNC(=O)c1ccccc1S(=O)(=O)Nc1cccnc1 [Example 90]
D = CCCCOCCCNC(=O)c1ccccc1S(=O)(=O)Nc1cccnc1 [Example 59]
Input: Order by pIC50, ascending. Your reply should list the labels following the order given in the request.
Output: D, B, C, A

----------
target: UniProt:P08684; experiment: Determination of compound Kiapp against recombinant CYP3A4 enzyme (BFC fluorescent substrate); type: biochemical; conditions: Super. enzyme preparation, read-out: Kiapp (BFC, Super.)
property-measured: Ki (nM)

Illustrative cases are given below, each with its answer.
>>> print(df.to_string())
                              sample_smiles  property_measured  value
0  COc1cncc(NS(=O)(=O)c2ccccc2C(=O)NCCCc2ccccc2)c1                 Ki    8.7
1  CC[C@H](C)CNC(=O)c1ccccc1S(=O)(=O)Nc1cncc(OC)c1                 Ki   22.3
2  COc1cncc(NS(=O)(=O)c2ccccc2C(=O)NCc2ccc3c(c2)CCO3)c1                 Ki   27.1
3  CN(c1cccnc1)S(=O)(=O)c1ccccc1C(=O)NCc1ccc(F)c(F)c1                 Ki   19.8
4  COc1cncc(NS(=O)(=O)c2ccccc2C(=O)NCc2ccc(F)cc2Cl)c1                 Ki      2
5  CCCCCNC(=O)c1ccccc1S(=O)(=O)N(C)c1cncc(OC)c1                 Ki   23.4

I = O=C(NCc1ccc(F)cc1)c1ccccc1S(=O)(=O)Nc1cccnc1
II = COc1ccncc1NS(=O)(=O)c1ccccc1C(=O)N(C)C(C)C
III = CCOCCNC(=O)c1ccccc1S(=O)(=O)Nc1cnccc1OCC
Input: Thanks in advance: please rank these 3 entries by Ki, highest to lowest. Your reply should list the labels following the order given in the request.
Output: III, II, I

----------
Target: CYP3A4 (Homo sapiens, UniProt P08684)
Test: Determination of IC50 against CYP3A4 by measurement of inhibition of midazolam metabolism (human liver microsomes, 1-hydroxymidazolam by LC-MS/MS)
Format: biochemical
Set-up: 0.1 mg/mL human liver microsomes
Details: 2 μM midazolam, 0.1 mg/mL human liver microsomes
Description: 3. Determination of IC50 Against CYP3A4 by Measurement of Inhibition of Midazolam Metabolism This assay was performed using a standard 96 well plate design. […] Quantitation of metabolite peak area ratio against internal standard is determined by LC-MS/MS analysis. The production of 1-hydroxymidazolam from midazolam metabolism is determined after incubation for eight minutes by comparison to a standard curve generated for the metabolite. […]
pIC50: −log10 of the molar value.
property-measured: pIC50

                                   compound  property_measured  value
0  COc1ccccc1CNC(=O)c1ccccc1S(=O)(=O)Nc1cncc(C)c1              pIC50   8.00

1 = COc1ccc(CNC(=O)c2ccccc2S(=O)(=O)Nc2cccnc2)c(OC)c1
2 = CCCCN(C)C(=O)c1ccccc1S(=O)(=O)Nc1cnccc1OC
3 = CN(c1cccnc1)S(=O)(=O)c1ccccc1C(=O)N1CCOCC1
4 = Cc1cncc(NS(=O)(=O)c2ccccc2C(=O)NCC2CCCC2)c1
5 = CN(c1cccnc1)S(=O)(=O)c1ccccc1C(=O)N1CCCC(C)(C)C1
Input: Order by pIC50, ascending. Your reply should list the labels following the order given in the request.
Output: 3, 5, 2, 1, 4

1 = CCC(C)CNC(=O)c1ccccc1S(=O)(=O)Nc1cncc(C)c1 (stereo not drawn)
2 = CN(c1cccnc1)S(=O)(=O)c1ccccc1C(=O)NCC(C)(C)C
3 = COc1ccncc1NS(=O)(=O)c1ccccc1C(=O)N[C@H](C)C(C)C
4 = CCCNC(=O)c1ccccc1S(=O)(=O)Nc1cccnc1
5 = CC(C)CCN(C)C(=O)c1ccccc1S(=O)(=O)Nc1cccnc1
Input: Order by pIC50, ascending. Your reply should list the labels following the order given in the request.
Output: 4, 2, 3, 1, 5

a = Cc1cncc(NS(=O)(=O)c2ccccc2C(=O)N2CC(C)CC(C)C2)c1 (stereo not drawn)
b = CCCN(CC1CC1)C(=O)c1ccccc1S(=O)(=O)Nc1cccnc1
c = COc1cncc(NS(=O)(=O)c2ccccc2C(=O)N2CCCC2)c1
Input: Thanks in advance: please rank these 3 entries by pIC50, highest to lowest. Your reply should list the labels following the order given in the request.
Output: b, a, c
(b: 7.82, a: 7.62, c: 7.01)
